Form field: fraction of remaining proteolytic activity, thrombin (one value per entry).
# test target: thrombin (Homo sapiens)
# Construct: purchased Haematologic Technologies Inc. (Essex Jct., Vt.)
# method description: Specificity assay, thrombin
# Type: biochemical
# run parameters: 100 nM inhibitor; thrombin 6.2 nM, 0.7 mM S2366
Enter the number alone.

Record KALI-48: APPI Kunitz domain mutant, R1 TGHCRAAIPR2 FR3 (SEQ ID NO: 2) (VREVCSEQAETGHCRAAIPRWYFDVTEGKCAPFFYGGCGGNRNNFDTEEYCAAVCGSA) . Reported fraction of remaining proteolytic activity, thrombin: 0.99

Record KALI-46: APPI Kunitz domain mutant, R1 EGRCRASILR2 FR3 (SEQ ID NO: 33) (VREVCSEQAEEGRCRASILRWYFDVTEGKCAPFFYGGCGGNRNNFDTEEYCAAVCGSA) . Reported fraction of remaining proteolytic activity, thrombin: 0.99

Record KALI-8: APPI Kunitz domain mutant, R1 LGHCRAAIPR2 FR3 (SEQ ID NO: 3) (VREVCSEQAELGHCRAAIPRWYFDVTEGKCAPFFYGGCGGNRNNFDTEEYCAAVCGSA) . Reported fraction of remaining proteolytic activity, thrombin: 0.99

Record KALI-13: APPI Kunitz domain mutant, R1 SGHCRAAIPR2 FR3 (SEQ ID NO: 1) (VREVCSEQAESGHCRAAIPRWYFDVTEGKCAPFFYGGCGGNRNNFDTEEYCAAVCGSA) . Reported fraction of remaining proteolytic activity, thrombin: 0.96

Record KALI-30: APPI Kunitz domain mutant, R1 EGHCRAAILR2 FR3 (SEQ ID NO: 5) (VREVCSEQAEEGHCRAAILRWYFDVTEGKCAPFFYGGCGGNRNNFDTEEYCAAVCGSA) . Reported fraction of remaining proteolytic activity, thrombin: 1.00
